Biological target: GORASP2, Q9H8Y8
Experiment: holdup assay
Parameters: key: below the threshold = too weak to quantify, mostly under pKd 3.1 to 4
Conditions: plain residues with an end cap or a label only (N-terminal biotin on a linker: ado-ado)
experimentalEndpoint: pKd

Reference set, count: 5
INSERT INTO assay_data (binder, experimentalendpoint, value) VALUES
  ('THREVKFTSL [CD46, P15529]', 'pKd', 'below the threshold'),
  ('TKEIPNCTSV [SORCS3, Q9UPU3]', 'pKd', 3.75),
  ('DAAHHDESNC [FMNL3, Q8IVF7]', 'pKd', 'below the threshold'),
  ('GQNMTVSVVI [PRLHR, P49683]', 'pKd', 'below the threshold'),
  ('PLATCDETSI [SEMA4F, O95754]', 'pKd', 'below the threshold');

Working through the 3 binders below one at a time, give pKd for each.
1. QRYPGNQTTC [CCL24, O00175]
2. GTMFLRETSL [GUCY1A2, P33402]
3. YAEKRMLTEV [KCNA6, P17658]

["below the threshold", "below the threshold", 3.92]
